The reported measurements were obtained from ChEMBL document CHEMBL1201862.

Test system: RXF 393
test method notes: NCI tumour cell line growth inhibition, 48 h
Activity calls are given as the source filed them. Rule as the data show it: active = GI50 up to about 1.1 µM and inactive = higher.
quantity measured: GI50

[
  {
    "chemical string": "COc1ccc2c(c1)CC[C@@H]1[C@@H]2CC[C@]2(C)C(=O)/C(=C/c3ccc(C#N)cc3)C[C@@H]12",
    "GI50": "> 100 µM (inactive)"
  }
]

Given item Cc1ccc(S(=O)(=O)OI(O)CC(F)(F)F)cc1 , the value recorded as its GI50 is > 100 µM (inactive)

Given item NC1=CN(CCCO)C2=N/C(=C\c3ccccc3)C(=O)N12 , the value recorded as its GI50 is > 100 µM (inactive)

Given item CC[n+]1[b-](C(C)(C)C)n(/N=C/C(C)(C)C)[b-](C(C)(C)C)[n+]1CC , the value recorded as its GI50 is > 100 µM (inactive)

Given item CCOC(=O)C1(F)S(=O)(=O)OCCOS1(=O)=O , the value recorded as its GI50 is > 100 µM (inactive)

Given item Cc1n[nH]c(=O)n1/N=C/c1c[nH]c2ccccc12 , the value recorded as its GI50 is 20.9 µM (inactive)

* * *

Collected GI50 values appear next to each entry.
System: A549
test method notes: NCI tumour cell line growth inhibition, 48 h
Calls of active or inactive are those of the source. Rule as the data show it: active = GI50 up to about 1.1 µM and inactive = higher.

[
  {
    "molecule": "O=c1cc(-c2ccccc2)oc2c1ccc1nc3ccccc3c(O)c12",
    "GI50": "45.1 µM (inactive)"
  }
]

Lab entry: A549 assay, molecule C#CCN1CCN(C(=S)N/N=C(\C)c2ccccn2)CC1 , GI50 = 3.12 µM (inactive)

Lab entry: A549 assay, molecule CC(C)=CC1C(C(=O)O)C1(C)C (configuration not stated) , GI50 = > 750 µM (inactive)

Lab entry: A549 assay, molecule O=C1C(Cl)=C(NCCc2ccc(O)cc2)C(=O)c2c(O)ccc(O)c21 , GI50 = > 10 µM (inactive)

Lab entry: A549 assay, molecule N#Cc1c2nc3ccccc3nc2n2ccc3ccccc3c12 , GI50 = > 100 µM (inactive)

Lab entry: A549 assay, molecule [N-]=[N+]=Nc1cc(=O)n(-c2ccccc2)c2ccccc12 , GI50 = > 100 µM (inactive)

* * *

Tested on: HOP-62
test method notes: NCI tumour cell line growth inhibition, 48 h
Calls of active or inactive are those of the source. Rule as the data show it: active = GI50 up to about 1.1 µM and inactive = higher.
Hello, when you answer, please use one of the following outcomes: y for active, n for inactive

Below, 3 compounds whose answers are already recorded.
[
  {
    "compound": "Cc1cn(C2CC(OP(=O)(O)OCC3OC(n4c[n+]([BH2-]C#N)c5c(=O)[nH]c(N)nc54)CC3O)C(CO)O2)c(=O)[nH]c1=O (configuration not stated)",
    "label class": "n"
  },
  {
    "compound": "C#CCN1CCN(C(=S)N/N=C(\\C)c2ccccn2)CC1",
    "label class": "y"
  },
  {
    "compound": "COc1ccc2occ(CCC(=O)O)c2c1",
    "label class": "n"
  }
]

Turning to the following compound.
Ask: Status in this test for COC(=O)C(Cc1c(C2Nc3ccccc3C2CC(NC(C)=O)C(=O)OC)[nH]c2ccccc12)NC(C)=O (configuration not stated) ?
Reply: n

* * *

Tested on: CAKI-1
test method notes: NCI tumour cell line growth inhibition, 48 h
Active and inactive are the calls of the source. Cut-off read from the data, not from the text of the source: active = GI50 up to about 1.1 µM and inactive = higher.
quantity measured: GI50

[
  {
    "chemical string": "COc1ccc2sc(-n3nc4ccccc4c3Nc3nc4ccc(OC)cc4s3)nc2c1",
    "value reported": "1.28 µM (inactive)"
  },
  {
    "chemical string": "O=C1C(Br)=CC2(C=C1Br)CCNC1=C2C(=O)c2ncccc2C1=O",
    "value reported": "1.61 µM (inactive)"
  },
  {
    "chemical string": "CC1=NN(c2nc(N)nc(CC#N)n2)C(C)(C)C1",
    "value reported": "> 100 µM (inactive)"
  }
]

Given item COC(=O)CCCc1ccc2c(c1)CCC2 , the value recorded as its GI50 is > 100 µM (inactive)

Given item CN(C)c1n/c(=N/Cc2ccccc2)ss1 , the value recorded as its GI50 is > 10 µM (inactive)

* * *

System: PC-3
test method notes: NCI tumour cell line growth inhibition, 48 h
The source made the active and inactive calls. Rule as the data show it: active = GI50 up to about 1.1 µM and inactive = higher.
quantity measured: GI50

Use these answered entries as a reference point.
[
  {
    "compound": "Clc1ccccc1NN(Cc1ccccn1)c1ccccc1Cl",
    "value reported": "29.2 µM (inactive)"
  },
  {
    "compound": "N=C1OC(c2c[nH]c3ccc(OCc4ccccc4)cc23)C(O)=C1O (stereo not drawn)",
    "value reported": "> 100 µM (inactive)"
  }
]

Given item CCN1CCN(c2nc3ccccc3nc2C(=O)c2ccc(OC)cc2)CC1 , the value recorded as its GI50 is 78 µM (inactive)

Given item CC1=NN(c2nc(N)nc(CC#N)n2)C(C)(C)C1 , the value recorded as its GI50 is > 100 µM (inactive)

Given item CO[C@H]1/C=C/O[C@@]2(C)Oc3c(C)c(O)c4c(O)c(c(/C=N/N5CCN(C)CC5)c(O)c4c3C2=O)NC(=O)/C(C)=C\C=C\[C@H](C)[C@H](O)[C@@H](C)[C@@H](O)[C@@H](C)[C@H](OC(C)=O)[C@@H]1C , the value recorded as its GI50 is 81.5 µM (inactive)

* * *

Collected GI50 values appear next to each entry.
Test system: MOLT-4
test method notes: NCI tumour cell line growth inhibition, 48 h
Active and inactive are the calls of the source. No stated cut-off is given here; in the data, active = GI50 up to about 1.1 µM and inactive = higher.

[
  {
    "molecule": "CC(=O)OCc1ccc2oc(=O)c(C(=O)Oc3cccc(Cl)c3)cc2c1",
    "GI50": "90.2 µM (inactive)"
  },
  {
    "molecule": "CCCCC(C)(C/C=C/[C@@H]1[C@@H](C(O)CCCCCC(=O)OC)C(=O)C[C@H]1O[Si](C)(C)C(C)(C)C)O[Si](C)(C)C (stereo not given in full)",
    "GI50": "19.7 µM (inactive)"
  },
  {
    "molecule": "OC(Cc1cnnc2ccccc12)C(Cl)(Cl)Cl (stereo not given)",
    "GI50": "> 10 µM (inactive)"
  },
  {
    "molecule": "O=C(Oc1ccc(Cl)cc1[N+](=O)[O-])c1ccccc1",
    "GI50": "> 100 µM (inactive)"
  },
  {
    "molecule": "CC(C)CCC[C@@H](C)[C@H]1CC[C@H]2[C@@H]3CC=C4C[C@@H](OC(=O)c5cccc6c(=O)c7ccccc7[nH]c56)CC[C@]4(C)[C@H]3CC[C@]12C",
    "GI50": "> 75 µM (inactive)"
  }
]

Lab entry: MOLT-4 assay, molecule NC1=CN(CCCO)C2=N/C(=C\c3ccccc3)C(=O)N12 , GI50 = > 100 µM (inactive)

Lab entry: MOLT-4 assay, molecule COC(=O)C1=C(C(=O)OC)C2(OC(C)=O)c3ccccc3-c3ccccc3C12 (stereo not given) , GI50 = 1.96 µM (inactive)

Lab entry: MOLT-4 assay, molecule COC(=O)CC[N+]1([O-])CC1 , GI50 = > 100 µM (inactive)

Lab entry: MOLT-4 assay, molecule O=C(O)c1cc2c(cc1CC(Cc1ccc3c(c1)CCCC3)C(=O)O)CCCC2 (stereo not given) , GI50 = 59.8 µM (inactive)

Lab entry: MOLT-4 assay, molecule COc1ccc2c(c1)CC[C@@H]1[C@@H]2CC[C@]2(C)C(=O)/C(=C/c3ccc(C#N)cc3)C[C@@H]12 , GI50 = > 100 µM (inactive)

* * *

Test system: COLO 205
test method notes: NCI tumour cell line growth inhibition, 48 h
Activity calls are given as the source filed them. Rule as the data show it: active = GI50 up to about 1.1 µM and inactive = higher.
quantity measured: GI50

Use these answered entries as a reference point.
[
  {
    "compound": "NCCCCNCCCNC(=O)CNC(=O)CC(O)C(N)CCCC(NC(=O)C(CN)NC(=O)C(O)CNC(=O)CC(N)c1ccc(O)cc1)C(=O)O (stereo not given)",
    "GI50": "> 10 µM (inactive)"
  },
  {
    "compound": "CC(=O)N/C(=C\\c1cccc([N+](=O)[O-])c1)c1nc2ccc3c(c2[nH]1)C(=O)c1ccccc1C3=O",
    "GI50": "> 78.2 µM (inactive)"
  }
]

Given item O=C1NCCCNCCCNCCCNC(=O)c2cccc1n2 , the value recorded as its GI50 is > 100 µM (inactive)

Given item CC1=N/C(=C\c2ccc(/C=C3/N=C(C)OC3=O)cc2)C(=O)O1 , the value recorded as its GI50 is > 100 µM (inactive)

Given item CCOc1ccc2nc(NC(=O)c3c/c(=N\NC(=O)C[N+](C)(C)C)c4ccc(O)cc4o3)sc2c1 , the value recorded as its GI50 is 1.63 µM (inactive)

Given item Nc1ncnc2c1ncn2C1OC(CO)C(O)C1NS(=O)(=O)c1ccccc1 (stereo not given) , the value recorded as its GI50 is > 100 µM (inactive)
